- system: proton-coupled amino acid transporter (hPAT1) (Homo sapiens)
- Construct: gene SLC36A1
- Sequence (Q7Z2H8 whole entry): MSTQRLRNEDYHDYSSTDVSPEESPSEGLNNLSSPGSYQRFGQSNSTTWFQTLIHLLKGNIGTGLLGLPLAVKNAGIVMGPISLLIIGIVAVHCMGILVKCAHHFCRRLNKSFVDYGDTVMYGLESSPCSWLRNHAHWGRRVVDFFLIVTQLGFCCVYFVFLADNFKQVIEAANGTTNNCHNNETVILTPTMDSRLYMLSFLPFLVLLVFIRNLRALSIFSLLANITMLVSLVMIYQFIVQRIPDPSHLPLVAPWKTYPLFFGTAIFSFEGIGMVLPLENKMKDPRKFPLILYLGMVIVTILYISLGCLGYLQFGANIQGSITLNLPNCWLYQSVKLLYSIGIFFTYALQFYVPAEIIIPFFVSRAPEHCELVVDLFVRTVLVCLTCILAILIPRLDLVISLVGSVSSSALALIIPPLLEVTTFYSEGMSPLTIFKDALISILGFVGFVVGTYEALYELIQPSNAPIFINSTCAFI
- test.summary: TEVC in hPAT1-expressing Xenopus oocytes; [3H]-proline uptake inhibition in Caco-2 cells, pH […]
- Assay type: cell-based
measured.property: IC50 (µM)
Express your answer in µM, writing the number without its unit.

Using proton-coupled amino acid transporter (hPAT1) (Homo sapiens) as the test system, report measured IC50 of O=C(O)Cc1ccccc1Nc1c(Cl)cccc1Cl [diclofenac] .
272

====

- system: proton-coupled amino acid transporter (hPAT1) (Homo sapiens)
- Construct: gene SLC36A1
- test.summary: TEVC in hPAT1-expressing Xenopus oocytes; [3H]-proline uptake inhibition and kinetics in Caco-2 cells, pH […]
- Type: cell-based
measured.property: IC50 (µM)
Express your answer in µM, writing the number without its unit.

Dear colleague, please send me the reported IC50 for CC(C)Cc1ccc(C(C)C(=O)O)cc1 (racemic) [ibuprofen] when you can.
954

====

- system: proton-coupled amino acid transporter (hPAT1) (Homo sapiens)
- Construct: gene SLC36A1
- test.summary: concentration-dependent inhibition of [3H]-proline uptake in Caco-2 cells, pH […]
- Format: cell-based
measured.property: pIC50
pIC50 field: float, defined as -log10 of concentration (mol/L).

Using proton-coupled amino acid transporter (hPAT1) (Homo sapiens) as the test system, report measured pIC50 of CC(C(=O)O)c1ccc(-c2ccccc2)c(F)c1 (racemic) .
3.55
